- protocol: yeast display, Sf9 membrane polyspecificity reagent, FACS + sequencing; frameworks hold sequencing errors
readout.label: polyreactivity (PSR sort gate)

seq | assay.result
QVQLVESGGGLVQAGGSLRLSCASSGNIFDIYAMGWYRQAPGKERELVAAITSSGGSTYYADSVKGRCTISRDNAKNTVYLQMNSLKPEDTAVYYCNAVSLVQKGDYWGQGTQVTVSS | high polyreactivity
QVQLVESGVGLVQAGGSLRLICAASGSIFGYNAMGWYRQAPGKERELVAAISRSGGRTYYADSVKGSFTISRDNAKNTVYLQMNSLKPEDTAVYYCAASRPGLRTPGQMGYWGQGTQVTVSS | high polyreactivity

src = the nanobody polyreactivity screen of Harvey et al. (2022)
